These data points were gathered from patent US20230203060A1.

Reported IC50 values for the following molecules.
Target: KRAS G12C (Homo sapiens, UniProt P01116, G12C)
Sequence (P01116 1-188 isoform P01116-2 G12C): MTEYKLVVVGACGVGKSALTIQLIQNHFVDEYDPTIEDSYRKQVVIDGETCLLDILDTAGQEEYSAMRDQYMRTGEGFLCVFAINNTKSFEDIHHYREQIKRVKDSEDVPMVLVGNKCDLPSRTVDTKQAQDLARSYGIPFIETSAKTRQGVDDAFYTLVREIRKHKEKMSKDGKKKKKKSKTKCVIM
Assay: KRAS G12C NEA-HTRF experiment (SOS1-catalyzed displacement of GDP by GTP)
I only need the number, in nM, no unit after it.

Example cases with answers are listed next.
{"Molecule": "C=CC(=O)N1CCN2C(=O)c3c(N4CCN(C)C5(CC5)C4)nc(-c4c(O)cccc4F)c(Cl)c3OC[C@H]2C1", "Reported endpoint": "IC50", "Data value": 111}
{"Molecule": "C=CC(=O)N1CCN2C(=O)c3c(N4C[C@@H](O)CC4(C)C)nc(-c4c(N)cccc4F)c(F)c3OC[C@H]2C1", "Reported endpoint": "IC50", "Data value": 42}
{"Molecule": "C=CC(=O)N1CCN2C(=O)c3c(N4C[C@@H](N(C)C)C[C@@H]4C)nc(-c4c(O)cccc4F)c(Cl)c3OC[C@H]2C1", "Reported endpoint": "IC50", "Data value": 65}
{"Molecule": "C=CC(=O)N1CCN2C(=O)c3c(NC(C)(C)C)nc(-c4c(O)cccc4F)c(Cl)c3OC[C@H]2C1", "Reported endpoint": "IC50", "Data value": 79}
{"Molecule": "C=CC(=O)N1CCN2C(=O)c3c(N4CC[C@@H]5C[C@@H]54)nc(-c4c(O)cccc4F)c(Cl)c3OC[C@H]2C1 (single isomer, unassigned)", "Reported endpoint": "IC50", "Data value": 66}

query: Which IC50 reading was recorded for the molecule C=CC(=O)N1CCN2C(=O)c3c(N4CC(N5CC(OC)C5)CC4(C)C)nc(-c4ccccc4F)c(Cl)c3OC[C@H]2C1 (single isomer, unassigned) ?
result: 431

----------
Target: KRAS G12C (Homo sapiens, UniProt P01116, G12C)
Construct: purchased Reactionbiology
Test: KRAS G12C NEA-HTRF experiment (SOS1-catalyzed displacement of GDP by GTP)
Assay type: biochemical
// reported pIC50 for each item listed
# pIC50: negative log10 of molar concentration; output just the value

Answered cases to consult:
{"Compound": "C=CC(=O)N1CCN2C(=O)c3c(N4Cc5cn(C)nc5C4C)nc(-c4c(O)cccc4F)c(Cl)c3OC[C@H]2C1 (stereo partly drawn)", "Assayed system": "KRAS G12C (Homo sapiens, UniProt P01116, G12C)", "pIC50": 7.74}
{"Compound": "C=CC(=O)N1CCN2C(=O)c3c(N4CC(=O)N(C)CC4C)nc(-c4c(O)cccc4F)c(Cl)c3OC[C@H]2C1 (single isomer, unassigned) [Z221-2]", "Assayed system": "KRAS G12C (Homo sapiens, UniProt P01116, G12C)", "pIC50": 6.86}
{"Compound": "C=CC(=O)N1CCN2C(=O)c3c(N4CC(N(C)CC(F)F)CC4(C)C)nc(-c4ccccc4F)c(Cl)c3OCC2C1 (single isomer, unassigned)", "Assayed system": "KRAS G12C (Homo sapiens, UniProt P01116, G12C)", "pIC50": 8.03}
{"Compound": "C=CC(=O)N1CCN2C(=O)c3c(N4CCN(C)C[C@@H]4C)nc(-c4c(O)cccc4F)c(Cl)c3OC[C@H]2C1", "Assayed system": "KRAS G12C (Homo sapiens, UniProt P01116, G12C)", "pIC50": 6.85}
{"Compound": "C=CC(=O)N1CCN2C(=O)c3c(N4C[C@H](CO)CC4(C)C)nc(-c4c(O)cccc4F)c(Cl)c3OC[C@H]2C1 (single isomer, unassigned)", "Assayed system": "KRAS G12C (Homo sapiens, UniProt P01116, G12C)", "pIC50": 7.96}

--- query ---
query: Query (compound): C=CC(=O)N1CCN2C(=O)c3c(N4C[C@H](N(C)CC(F)(F)F)CC4(C)C)nc(-c4ccccc4F)c(Cl)c3OC[C@H]2C1 (single isomer, unassigned) ; field requested: pIC50
result: 6.90

----------
Molecular target: KRAS G12C (Homo sapiens, UniProt P01116, G12C)
Test: KRAS G12C NEA-HTRF experiment (SOS1-catalyzed displacement of GDP by GTP)
Reported endpoint: pIC50
Note on pIC50: it is the negative log10 of concentration, concentration in mol/L.

{"Compound": "C=CC(=O)N1CCN2C(=O)c3c(N4C[C@H](OC)CC4(C)C)nc(-c4c(O)cccc4F)c(Cl)c3OC[C@H]2C1 (single isomer, unassigned) [Z244-2]", "Assayed system": "KRAS G12C (Homo sapiens, UniProt P01116, G12C)", "pIC50": 8.30}
{"Compound": "C=CC(=O)N1CCN2C(=O)c3c(N4C[C@@H](N(C)CCOC)C[C@@H]4C)nc(-c4c(O)cccc4F)c(Cl)c3OC[C@H]2C1 [Z358-1]", "Assayed system": "KRAS G12C (Homo sapiens, UniProt P01116, G12C)", "pIC50": 7.58}

// moving on: another record for pIC50
query: GET /values?readout=pIC50&system=KRAS G12C (Homo sapiens, UniProt P01116, G12C)&item= C=CC(=O)N1CCN2C(=O)c3c(N4CC(=O)N(C)CC4C)nc(-c4c(O)cccc4F)c(Cl)c3OC[C@H]2C1 (stereo partly drawn) [Z221]
result: 7.44

----------
Tested on: KRAS G12C mutant NCI-H358 cells
Experiment: Cell proliferation inhibition experiment, 3D spheroid, CellTiter-Glo, NCI-H358
Assay type: cell-based, human
Details: Homo sapiens, NCI-H358, 120 h, NCI-H358 (KRAS G12C mutant) 3D spheroid, 5 days with compound, CellTiter-Glo; read-out: H358 IC50
Description: […] NCI-H358 is a KRAS G12C mutant human non-small cell lung cancer cell line, cultured in 10% FBS RPMI-1640+1% PS culture medium; and A549 is a KRAS G12S mutant human lung adenocarcinoma cell line, cultured in 10% FBS F-12K+1% PS culture medium. Cells at logarithmic growth stage were taken, digested with trypsin-EDTA, then collected and counted. […] The cell proliferation inhibition rate IR (%)=(RLU control -RLU compound)/(RLU control -RLU blank) x100% was calculated. […]
Reported endpoint: log10(IC50) (log10 of the value in nM)
In plain terms, each number is the log10 of measured IC50 in nM.

{"Molecule": "C=CC(=O)N1CCN2C(=O)c3c(N4CC(NC)CC4(C)C)nc(-c4ccccc4F)c(Cl)c3OC[C@H]2C1 (stereo partly shown)", "Assayed system": "KRAS G12C mutant NCI-H358 cells", "log10(IC50)": 0.60}
{"Molecule": "C=CC(=O)N1CCN2C(=O)c3c(N4CC[C@H](N(C)C)C4(C)C)nc(-c4ccccc4F)c(Cl)c3OC[C@H]2C1", "Assayed system": "KRAS G12C mutant NCI-H358 cells", "log10(IC50)": 1.04}
{"Molecule": "C=CC(=O)N1CCN2C(=O)c3c(N4C[C@@H](O)CC4(C)C)nc(-c4c(F)ccc(F)c4O)c(F)c3OC[C@H]2C1 (single isomer, unassigned)", "Assayed system": "KRAS G12C mutant NCI-H358 cells", "log10(IC50)": 0.85}
{"Molecule": "C=CC(=O)N1CCN2C(=O)c3c(N4CCN(C)CC45CC5)nc(-c4c(O)cccc4F)c(Cl)c3OC[C@H]2C1", "Assayed system": "KRAS G12C mutant NCI-H358 cells", "log10(IC50)": 2.13}

query: Param item = C=CC(=O)N1CCN2C(=O)c3c(N4C[C@@H](N5CCN(C)CC5)CC4(C)C)nc(-c4c(F)cccc4Cl)c(Cl)c3OC[C@H]2C1 (single isomer, unassigned) ; retrieve measured log10(IC50).
result: -0.10

query: # get_value(readout='log10(IC50)', item= C=CC(=O)N1CCN2C(=O)c3c(N4C[C@@H](O)CC4(C)C)nc(-c4c(O)ccc(Cl)c4F)c(F)c3OC[C@H]2C1 (single isomer, unassigned) )
result: 0.72

----------
Biological target: KRAS G12C (Homo sapiens, UniProt P01116, G12C)
Assay: KRAS G12C NEA-HTRF experiment (SOS1-catalyzed displacement of GDP by GTP)
Reported endpoint: pIC50
Reminder that pIC50 is minus the log10 of a molar concentration.

{"Compound": "C=CC(=O)N1CCN2C(=O)c3c(N4C[C@H](O)C[C@@H]4C)nc(-c4c(O)cccc4F)c(Cl)c3OC[C@H]2C1 [Z259]", "pIC50": 6.95}
{"Compound": "C=CC(=O)N1CCN2C(=O)c3c(N4CC(N(C)C)CC4(C)C)nc(-c4cccc(F)c4F)c(Cl)c3OC[C@H]2C1 (single isomer, unassigned) [Z473-2]", "pIC50": 7.11}
{"Compound": "C=CC(=O)N1CCN2C(=O)c3c(N4CCN(CC)C[C@@H]4C)nc(-c4c(O)cccc4F)c(Cl)c3OC[C@H]2C1 [Z236]", "pIC50": 6.95}

Let's switch to this compound now.
query: Please tell me: pIC50 of C=CC(=O)N1CCN2C(=O)c3c(N4CC(C#N)CC4(C)C)nc(-c4c(O)cccc4F)c(F)c3OC[C@H]2C1 (stereo partly shown) [Z335] , system KRAS G12C (Homo sapiens, UniProt P01116, G12C)?
result: 7.11
